From: PubChem BioAssay (NCI)

System: HT29 colon
Test: NCI-60 one-dose screen, 48 h
Conditions: 10 µM unless noted
Description: Growth inhibition of the HT29 human tumor cell line is measured as a screen for anti-cancer activity. Cells are grown in 96 well plates and exposed to the test compound for 48 hours. Compounds are tested at a single concentration, which is 10^-5 M for most compounds. The reported endpoint is percent growth (GI% or GIPRCNT), where numbers from 0 - 100% represent growth inhibition, and numbers from -100% - 0 represent cell death. For example, a value of 40 represents 60% growth inhibition. […]
The panel holds about 83,000 compounds, 20% with a hit somewhere; the sample as a whole holds those more often. Calls of active or inactive are those of the source. The calls were made as follows: active = growth percent below 10; inactive = the rest.
Lab note: assign the record to one of active, inactive

compound	measured_target	assigned_category
O=C(O)C(=O)O	HT29 colon	inactive

Given CCOC(=O)C1=C(COCCN)NC(C)=C(C(=O)OC)C1c1ccccc1Cl (centres undefined) , state the outcome it received in this test.
inactive
